Where these numbers come from: the RNAGym collection of RNA variant scans (doi:10.7554/elife.90254)

Examples of variants with documented self-cleavage follow.
B1: LINE1-full (parent)
chain: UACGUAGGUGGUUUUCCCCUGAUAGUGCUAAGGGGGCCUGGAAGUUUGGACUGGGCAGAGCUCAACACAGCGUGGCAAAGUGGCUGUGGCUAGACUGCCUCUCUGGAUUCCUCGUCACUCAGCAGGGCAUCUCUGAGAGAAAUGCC

Variants of: B1
EXPERIMENTAL DETAILS: self-cleavage, relative activity (ratio to wild type); higher = more cleavage; in vitro, sequencing; the parent is a self-cleaving ribozyme
MEASURE NAME: self-cleavage

| MUTATION LABEL | MEASURE NAME | MEAS VALUE |
| --- | --- | --- |
| C19U U102A | self-cleavage | 1.19 |
| A22C A141G | self-cleavage | 1.34 |
| G11C A138G | self-cleavage | 1.22 |
| G41A A124U | self-cleavage | 1.08 |
| C18A U96C | self-cleavage | 0.22 |
| U52A U104A | self-cleavage | 2.03 |
| C51G U62C | self-cleavage | 0.08 |
| G35A U115A | self-cleavage | 1.17 |
| G55C | self-cleavage | 0.08 |
| U46G U87C | self-cleavage | 0 |
